Where do the numbers come from? From patent US20250154169A1.

System: HTT mRNA
test: Splicing RT-qPCR assay, HTT canonical (CJ) and alternative (AJ) junction mRNA
Assay type: cell-based, human
settings: Homo sapiens, A673 or K562 cells, 24 hours compound treatment, read-out: HTT CJ (IC50, decrease in canonical junction mRNA)
Description: Compounds described herein were used to modulate RNA transcript abundance in cells. The expression of a target mRNA was measured by detecting the formation of an exon-exon junction in the canonical transcript (CJ). A compound mediated exon-inclusion event was detected by observing an increase in formation of a new junction with an alternative exon (AJ). Real-time qPCR assays were used to detect these splicing switches and interrogate the potency of various compounds towards different target genes. […]
pIC50: −log10 of the molar value.
The following compounds are listed with their measured pIC50 values.

Cc1cn2cc(NC(=O)c3ccc(N4CC5NC5C4)c4cn(C)nc34)cc(F)c2n1 (stereo not shown) [Compound 563] :: 6.00 to 7.00
Cc1cn2cc(NC(=O)c3ccc(N4CCC(N5C6CNCC65)C4)c4cn(C)nc34)cc(F)c2n1 (stereo not shown) [Compound 622] :: < 5.00
Cc1cn2cc(NC(=O)c3ccc(N4C5CNCC54)c4cn(C)nc34)cc(F)c2n1 (stereo not shown) [Compound 564] :: 6.00 to 7.00

// below: pIC50 requested for another compound
Query string: Specify reported pIC50 for the compound shown: Cc1cn2cc(NC(=O)c3ccc(N4CCC(N5C6COCC65)C4)c4cn(C)nc34)cc(F)c2n1 (stereo not shown) [Compound 629]
Result string: 5.00 to 6.00

---

Test system: MYB mRNA
test: Splicing RT-qPCR assay, MYB canonical (CJ) and alternative (AJ) junction mRNA
Assay type: cell-based, human
settings: Homo sapiens, 24 h, A673 or K562 cells, 24 hours compound treatment, RT-qPCR; read-out: MYB CJ (IC50, decrease in canonical junction mRNA)
The following compounds are listed with their measured IC50 values.

Cc1cn2cc(NC(=O)c3ccc(N4CCN[C@@H](C(C)C)C4)c4cn(C)nc34)cc(F)c2n1 :: 100 to 1000 nM
CCn1cc2c(N3CCC4(CCN4)CC3)ccc(C(=O)Nc3cc(F)c4nc(C)cn4c3)c2n1 :: 100 to 1000 nM
CCn1cc2c(N3CC4(CCNC4)C3)ccc(C(=O)Nc3cc(F)c4nc(C)cn4c3)c2n1 :: 100 to 1000 nM

Query string: Look up MYB mRNA data: IC50 of Cc1cn2cc(NC(=O)c3c(F)cc(N4CC[C@@H](NC5CC5)C4)c4cn(C)nc34)cc(F)c2n1 , then report it.
Result string: < 100 nM

Query string: Look up MYB mRNA data: IC50 of CCn1cc2c(N3CCC(N[C@H]4C[C@@H](O)C4)CC3)ccc(C(=O)Nc3cc(F)c4nc(C)cn4c3)c2n1 , then report it.
Result string: < 100 nM

Query string: Look up MYB mRNA data: IC50 of Cc1cn2cc(NC(=O)c3ccc(N4CCNCC4)c4nn(C)nc34)cc(F)c2n1 , then report it.
Result string: 100 to 1000 nM

Query string: Look up MYB mRNA data: IC50 of Cc1cn2cc(NC(=O)c3ccc(N4CC[C@@H](NC5COC5)C4)c4cn(C)nc34)cc(F)c2n1 , then report it.
Result string: 100 to 1000 nM

---

Test system: HTT mRNA
test: Splicing RT-qPCR assay, HTT canonical (CJ) and alternative (AJ) junction mRNA
Type: cell-based, human
settings: Homo sapiens, A673 or K562 cells, 24 hours compound treatment, read-out: HTT AJ (AC50, increase in alternative junction mRNA)
Structures can show the parent of a compound that is named as a salt.
measurement_type: AC50

These solved cases illustrate the format of a correct answer.
CCn1cc2c(N3CC[C@H](NC4CC4)C3)ccc(C(=O)Nc3cc(F)c4nc(C)cn4c3)c2n1 [Compound 410] :: > 10 µM
Cc1cn2cc(NC(=O)c3ccc(N4CC[C@@H](N)C4)c4cn(C)nc34)cc(F)c2n1 [Compound 381] :: > 10 µM
Cc1cn2cc(NC(=O)c3ccc(N4CCN[C@@H](C(C)C)C4)c4cn(C)nc34)cc(F)c2n1 [Compound 589] :: > 10 µM
Cc1cn2cc(NC(=O)c3ccc(N4CCNCC4)c4cc(C)oc34)cc(Cl)c2n1 [Compound 266] :: 1 to 10 µM

Query string: Specify reported AC50 for the molecule shown: CCNC1CCN(c2ccc(C/N=C3\C=C(F)c4nc(C)cn4C3)c3nn(C)cc23)CC1 [Compound 500]
Result string: > 10 µM

Query string: Specify reported AC50 for the molecule shown: Cc1cn2cc(NC(=O)c3ccc(N4CCNCC4)c4cn(CC(O)CO)nc34)cc(F)c2n1 (stereo not shown) [Compound 329]
Result string: > 10 µM

Query string: Specify reported AC50 for the molecule shown: CCn1cc2c(N3CCC(NC4CC4)C3)cc(F)c(C(=O)Nc3cc(F)c4nc(C)cn4c3)c2n1 (stereo not shown) [Compound 569]
Result string: 1 to 10 µM

Query string: Specify reported AC50 for the molecule shown: CCn1cc2c([C@@]34CCNCC3C4)ccc(C(=O)Nc3cc(F)c4nc(C)cn4c3)c2n1 (stereo partly shown) [Compound 513]
Result string: > 10 µM

Query string: Specify reported AC50 for the molecule shown: CCn1cc2c(N3CCNCC3)ccc(C(=O)Nc3cc(F)c4ncccc4c3)c2n1 [Compound 575]
Result string: > 10 µM

Query string: Specify reported AC50 for the molecule shown: Cc1cn2cc(NC(=O)c3ccc(N4CC[C@H](N)C4)c4cn(C)nc34)cc(F)c2n1 [Compound 382]
Result string: 1 to 10 µM

Query string: Specify reported AC50 for the molecule shown: Cc1cn2cc(NC(=O)c3ccc(N4CCNCC4)c4cn(CCO)nc34)cc(F)c2n1 [Compound 291, hydrochloride]
Result string: 1 to 10 µM

Query string: Specify reported AC50 for the molecule shown: Cc1cn2cc(NC(=O)c3ccc(N4CCNCC4)c4c3nnn4C)cc(F)c2n1 [Compound 436]
Result string: > 10 µM

Query string: Specify reported AC50 for the molecule shown: CCNC1CCN(c2ccc(C(=O)Nc3cn4cc(C)nc4c(F)c3OC)c3nn(C)cc23)CC1 [Compound 459]
Result string: 0.1 to 1 µM

---

System: MYB mRNA
test: Splicing RT-qPCR assay, MYB canonical (CJ) and alternative (AJ) junction mRNA
Assay type: cell-based, human
settings: Homo sapiens, 24 h, A673 or K562 cells, 24 hours compound treatment, RT-qPCR; read-out: MYB CJ (IC50, decrease in canonical junction mRNA)
pIC50: −log10 of the molar value.
measurement_type: pIC50

Cc1cn2cc(NC(=O)c3ccc(N4CCNCC4)c4cn(CC(=O)N(C)C)nc34)cc(F)c2n1 [Compound 309] :: 5.00 to 6.00
CCn1cc2c(N3C[C@H](C)N[C@@H](C)C3)ccc(C(=O)Nc3cc(F)c4nc(C)cn4c3)c2n1 [Compound 592] :: 6.00 to 7.00
Cc1cn2cc(NC(=O)c3c(F)cc(N4CCC(N(C)C)C4)c4cn(C)nc34)cc(F)c2n1 (stereo in doubt) [Compound 464] :: > 7.00
CN1CCN(c2ccc(C(=O)Nc3cc(F)c4nc(CO)oc4c3)c3nn(C)cc23)CC1 [Compound 494] :: < 5.00
CCn1cc2c(N3CC[C@H](NC)C3)ccc(C(=O)Nc3cc(F)c4nc(C)cn4c3)c2n1 [Compound 437] :: > 7.00
Cc1cn2cc(NC(=O)c3ccc(N4CCC(NC(C)(C)C)C4)c4cn(C)nc34)cc(F)c2n1 (stereo not shown) [Compound 249] :: 6.00 to 7.00

// below: pIC50 requested for another compound
Query string: Specify reported pIC50 for the compound shown: Cc1nc2c(C)nc(NC(=O)c3ccc(N4CCNCC4)c4cn(C)nc34)cc2o1 [Compound 405]
Result string: > 7.00

---

System: HTT
test: Protein abundance, HiBit-assay system (Promega), HTT
Type: cell-based
settings: Table 6; HiBiT-modified K562 cells, 24 hours
Structures can show the parent of a compound that is named as a salt.
The following molecules are listed with their measured IC50 values.

These solved cases illustrate the format of a correct answer.
Cc1cn2cc(NC(=O)c3ccc(N4CCN(C)CC4)c4cc(C)oc34)cc(F)c2n1 [Compound 189] :: > 10000 nM
Cc1cc2c(N3CCNCC3)ccc(C(=O)Nc3cc(F)c4cn(C)nc4c3)c2o1 [Compound 217] :: > 10000 nM
CCn1cc2c(N3CCC(N)(CC)CC3)cc(F)c(C(=O)Nc3cc(F)c4nc(C)cn4c3)c2n1 [Compound 557] :: 100 to 1000 nM

Query string: Specify reported IC50 for the molecule shown: Cc1cn2cc(NC(=O)c3ccc(C4CCNCC4)c4cn(C)nc34)cc(F)c2n1 [Compound 208]
Result string: 100 to 1000 nM

Query string: Specify reported IC50 for the molecule shown: Cc1cn2cc(NC(=O)c3ccc(N4CC[C@@H](N5CCNCC5)C4)c4cn(C)nc34)cc(F)c2n1 [Compound 562, hydrochloride]
Result string: > 10000 nM

Query string: Specify reported IC50 for the molecule shown: Cc1cn2cc(NC(=O)c3ccc(N4CCC(NC(C)(C)C)CC4)c4cc(C)oc34)cc(F)c2n1 [Compound 197]
Result string: > 10000 nM

Query string: Specify reported IC50 for the molecule shown: CCn1cc2c(N3CCNCC3)ccc(C(=O)Nc3cn4cc(C)nc4c(Oc4ccccc4)n3)c2n1 [Compound 566]
Result string: 1000 to 10000 nM

Query string: Specify reported IC50 for the molecule shown: Cc1cn2cc(NC(=O)c3ccc(N4CCNCC4)c4oc(C)nc34)cc(F)c2n1 [Compound 141]
Result string: 100 to 1000 nM

Query string: Specify reported IC50 for the molecule shown: Cc1cn2cc(NC(=O)c3ccc(C4CCNCC4)c4ccoc34)cc(F)c2n1 [Compound 149]
Result string: 1000 to 10000 nM
